Biological target: human GPR52 (Homo sapiens, UniProt Q9Y2T5)
Construct: expressed in transfected cells; host or cells: CHO (dhfr-) cells
Sequence (Q9Y2T5 whole entry): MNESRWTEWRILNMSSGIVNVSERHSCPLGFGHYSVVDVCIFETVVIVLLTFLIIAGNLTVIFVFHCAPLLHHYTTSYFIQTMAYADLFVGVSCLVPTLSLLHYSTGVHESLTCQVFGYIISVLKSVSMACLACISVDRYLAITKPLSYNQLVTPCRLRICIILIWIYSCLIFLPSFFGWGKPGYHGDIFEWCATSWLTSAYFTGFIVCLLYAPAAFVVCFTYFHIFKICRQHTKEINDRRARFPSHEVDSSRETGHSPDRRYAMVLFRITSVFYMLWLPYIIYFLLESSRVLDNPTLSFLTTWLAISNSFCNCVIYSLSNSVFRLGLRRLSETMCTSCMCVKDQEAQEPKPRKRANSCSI
Experiment: Increased intracellular cAMP levels in human GPR52 expression CHO cells (AlphaScreen cAMP assay)
Type: cell-based
Conditions: 1 μM test compound, 30 min at 37° C., human GPR52 expression CHO (dhfr−) cells; intracellular cAMP level, 100% = 1 μM 3-(6-(2-(3,4-dimethoxyphenyl)ethoxy)pyridin-2-yl)-N-(2-pyrrolidin-1-ylethyl)benzamide, 0% = DMSO
Where a name gives a salt, the structure may show the parent alone.
# note: boundary value 80% maps to n; GPR52 agonist activity (%) below it maps to y

Example results:
COc1ccc(CCNc2nccc(-c3cccc(NC(=O)CCCN4CCCC4)c3)n2)cc1OC :: n
COc1ccccc1CCNc1nccc(-c2cccc(C(=O)NCCN3CCCC3)c2)n1 :: n
COc1ccc(CCOc2cccc(-c3cccc(C(N)=O)c3)n2)cc1OC :: y
N#CCCNC(=O)c1cccc(-c2cccc(Oc3cncc(Cl)c3)n2)c1 :: y
COc1ccc(CCOc2cccc(-c3cccc(C(=O)NCCNc4ccccc4)c3)n2)cc1OC :: y
COc1ccc(CCOc2cccc(-c3cccc(C(=O)NCCc4ccncc4)c3)n2)cc1OC :: n
O=C(NCCN1CCCC1)c1cccc(-c2ccnc(NCCc3ccc(Cl)c(F)c3)n2)c1 :: y
COc1cccc(C(=O)Nc2cccc(-c3ccnc(NCCc4ccc(OC)c(OC)c4)n3)c2)c1 :: y
COc1ccc(CCNc2nccc(-c3cccc(NC(C)=O)c3)n2)cc1OC :: y
COc1ccc(CCOc2cccc(-c3cccc(NC(=O)NCCN(C)C)c3)n2)cc1OC :: n

# input Given the entry `COc1ccc(CCOc2cccc(-c3cccc(C(=O)NCCC(N)=O)c3)n2)cc1OC` , would its reported GPR52 agonist activity (%) be below 80%?
# output n

# input Given the entry `COc1cccc(CCOc2cccc(-c3cccc(C(=O)NCCO)c3)n2)c1` , would its reported GPR52 agonist activity (%) be below 80%?
# output y

# input Given the entry `COc1ccc(CCOc2cccc(-c3cccc(C(=O)Nc4ccc5ncccc5c4)c3)n2)cc1OC` , would its reported GPR52 agonist activity (%) be below 80%?
# output y

# input Given the entry `COc1ccc(CCNc2nccc(-c3cccc(NC(=O)CCN(C)C)c3)n2)cc1OC` , would its reported GPR52 agonist activity (%) be below 80%?
# output n

# input Given the entry COc1ccc(CCNc2nccc(-c3cccc(NC(=O)CC4CCCN4C)c3)n2)cc1OC (stereo not shown) [Working Example 28, hydrochloride] , would its reported GPR52 agonist activity (%) be below 80%?
# output y

---

Target: human GPR52 (Homo sapiens)
Construct: expressed in transfected cells; host or cells: CHO (dhfr-) cells
Assay: Increased intracellular cAMP levels in human GPR52 expression CHO cells (AlphaScreen cAMP assay)
Format: cell-based
Settings: 1 μM test compound, 30 min at 37° C., human GPR52 expression CHO (dhfr−) cells; intracellular cAMP level, 100% = 1 μM 3-(6-(2-(3,4-dimethoxyphenyl)ethoxy)pyridin-2-yl)-N-(2-pyrrolidin-1-ylethyl)benzamide, 0% = DMSO
reported.property: GPR52 agonist activity (%)
Answers are plain numbers, in %.

O=C(NCCO)c1cccc(-c2cccc(Oc3cc(Cl)cc(Cl)c3)n2)c1 [Working Example 87] :: 79

Give GPR52 agonist activity (%) for each of the items listed below.
1. COc1ccc(CCOc2cccc(-c3cccc(NC(=O)Cn4ccnc4)c3)n2)cc1OC [Working Example 302]
2. COc1ccc(CCOc2cccc(-c3cccc(C(=O)Nc4ccccn4)c3)n2)cc1OC [Working Example 219]
3. CNC(=O)c1cccc(-c2cccc(OCCc3ccc(OC)c(OC)c3)n2)c1 [Working Example 167]
4. CC(C)(CO)NC(=O)c1cccc(-c2cccc(Oc3cc(Cl)cc(Cl)c3)n2)c1 [Working Example 91]
5. COc1ccc(CCOc2cncc(-c3cccc(C(=O)NCCN4CCCC4)c3)c2)cc1OC [Working Example 44]
6. COc1ccc(CCOc2cccc(-c3cccc(NC(=O)CC4NCCc5ccccc54)c3)n2)cc1OC (centres unmarked) [Working Example 318]
7. COc1cc(CCNc2nccc(-c3cccc(C(=O)NCCN4CCCC4)c3)n2)ccc1F [Working Example 166]

# output
1: 57; 2: 94; 3: 68; 4: 61; 5: 68; 6: 82; 7: 109
